Data origin: PubChem BioAssay (NCI)

- System: SK-OV-3 ovarian
- test-summary: NCI-60 one-dose screen, 48 h
- recorded-conditions: 10 µM
Compounds without any hit were thinned out: in the full panel of roughly 83,000, 20% have a hit. Calls of active or inactive are those of the source. Rule for the calls: active = growth percent below 10; inactive = the rest.
Would you mind answering with one of these outcomes? 1 (yes) for active, 0 (no) for inactive

Solved cases below.
{"columns": ["molecule", "classification"],
 "data": [
  ["COC(=O)CC1CC1C1Cc2c(nc(N(C)S(C)(=O)=O)nc2C(C)C)-c2ccc(F)cc21 (stereo not drawn)", "0 (no)"],
  ["COc1ccc2[nH]c(O)c(N=NC(=O)COc3ccc(NC(=O)Nc4ccc(Cl)cc4)cc3)c2c1", "0 (no)"],
  ["COC[C@@H](CC(C)C)N=C1NC(=O)/C(=C/c2ccc3ncoc3c2)N1", "1 (yes)"],
  ["O=[N+]([O-])c1ccc(-c2nc(-c3ccccc3)c(-c3ccccc3)n2-c2ccc(S(=O)(=O)Nc3ncccn3)cc2)cc1", "0 (no)"],
  ["COc1cc2oc(-c3cccc(C(=O)Nc4ccc(Cl)cc4)c3)cc(=O)c2c(OCCNC(=O)CNC(=O)OC(C)(C)C)c1OC", "0 (no)"],
  ["Cc1ccc(/C(N)=N/c2sc(-c3ccccc3)nc2-c2ccccc2)cc1", "0 (no)"],
  ["CN1CCc2c(sc3ncnc(N/N=C/c4cn(-c5ccccc5)nc4-c4ccc(Br)cc4)c23)C1", "0 (no)"],
  ["O=c1[nH]c2ccc(Cl)cc2cc1CSc1ccc(Nc2nccc(-c3ccc(Cl)cc3)n2)cc1", "0 (no)"],
  ["Cc1ccc2nc(COc3ccc(C(=O)NNC(=S)NCCc4ccccc4)cc3)[nH]c2c1", "0 (no)"],
  ["CN(C)c1ccc(/C=C/c2nc3ccccc3c(=O)n2CC(=O)Nc2ccc(Cl)cc2)cc1", "0 (no)"]
]}

Short answer needed: outcome of this test for COc1ccc(N2N=C(c3ccc4c(c3)OCCO4)CC2c2cccc(NC(=O)CCCNS(=O)(=O)c3ccc(F)cc3)c2)cc1 (stereo not drawn) ?
0 (no)

Field: outcome | Entry: CCCCSc1nc(Nc2ccc(/C(C)=N/NC(N)=S)cc2)c(C#N)c(-c2ccc(OC)cc2)n1
0 (no)

Per the records of this test, what outcome belongs to CCCn1c(=O)c2[nH]c(-c3ccc(OCc4nc5ccc(C)cc5[nH]4)cc3)nc2n(CCC)c1=O ?
1 (yes)

In this assay, the call recorded for CC(=O)Oc1ccccc1C(=O)Oc1ccc(C(=O)/C=C/c2ccncc2)cc1 was what?
0 (no)

Give the logged outcome of this assay for the following molecule: CNC(=O)c1cc(-c2ccc(NC(=O)Nc3ccc(C)cc3)cc2)nc2cccnc12
0 (no)

Recorded test outcome, item CCCCCc1ccc(S(=O)(=O)Nc2cc(-c3csc(N(C)C(C)=O)n3)ccc2N2CCN(C)CC2)cc1
0 (no)

For O=C(CSc1nnc(-c2c[nH]c3ccccc23)n1-c1ccccc1)Nc1ccc(C(=O)/C=C/c2ccccc2Cl)cc1 , which call appears in the assay record?
0 (no)

// param item: O=S(=O)(Nc1ncccn1)c1ccc(-n2c(-c3ccccc3)nc(-c3ccccc3)c2-c2ccccc2)cc1 ; yields the recorded call
0 (no)

----------
- Test system: OVCAR-8 ovarian
- test-summary: NCI-60 one-dose screen, 48 h (100 = growth as untreated, 0 = no growth, -100 = all killed)
- recorded-conditions: 10 µM
The panel holds about 83,000 compounds, 20% with a hit somewhere; the sample as a whole holds those more often.
growth less than 20% is y; growth greater than or equal to 20% is n.

{"columns": ["molecule", "classification"],
 "data": [
  ["C=C(C)[C@@H]1CC[C@]2(COP(=O)(OCC)OCC)CC[C@]3(C)[C@H](CC[C@@H]4[C@@](C)(CCCN)[C@H](C(=C)C)CC[C@]43C)[C@@H]12", "n"],
  ["CC(=O)Nc1ccc(-c2cn(-c3cccc(C(=O)Nc4ccc(Cl)c(C(F)(F)F)c4)c3)nn2)cn1", "y"],
  ["COc1ccccc1[C@H]1C(C(=O)c2ccc(Cl)cc2)C2(N[C@@H]1c1ccccc1)C(=O)Nc1ccc(Cl)cc12 (stereo partly drawn)", "y"],
  ["CC(=O)C1=C(C)NC(SCC(=O)Nc2ccc(S(=O)(=O)Nc3cc(C)on3)cc2)=NC1c1ccccc1 (stereo not drawn)", "n"],
  ["C#Cc1ccc(S(=O)(=O)Nc2cccc(-c3csc(NC(C)=O)n3)c2)cc1", "n"],
  ["N#Cc1ccc(-c2nn(-c3ccc(C(=O)O)cc3)cc2CNc2ccc(Oc3ccccc3)cc2)cc1", "n"],
  ["CN(C)c1ccc(/C=C/c2nc3ccccc3c(=O)n2CC(=O)Nc2ccc(Cl)cc2)cc1", "y"]
]}

Moving on to another molecule below.
Consider O=C(NO)c1ccc(CNC(=O)[C@H]2Cc3c([nH]c4ccccc34)[C@H](c3ccc(Cl)cc3)N2)cc1 . Does its growth lie strictly below 20%?
y

----------
- Test system: HCT-15 colon
- test-summary: NCI-60 one-dose screen, 48 h (100 = growth as untreated, 0 = no growth, -100 = all killed)
- recorded-conditions: 10 µM
The panel holds about 83,000 compounds, 20% with a hit somewhere; the sample as a whole holds those more often.
Class fulfilled: growth at least 40%. Class not fulfilled: growth below 40%.

{"columns": ["compound", "target", "classification"],
 "data": [
  ["O=C(CNc1nc(-c2ccccc2)cs1)Nc1ccc(Cl)cc1", "HCT-15 colon", "not fulfilled"],
  ["CN(CCO)c1oc(-c2ccccc2)nc1[P+](c1ccccc1)(c1ccccc1)c1ccccc1", "HCT-15 colon", "fulfilled"],
  ["O=C(Nc1nc2ccccc2s1)c1ccc(Br)cc1", "HCT-15 colon", "fulfilled"],
  ["COc1ccc(CN2[C@H](C(=O)NCCCCCCC(=O)NO)Cc3c([nH]c4ccccc34)[C@H]2C2CC2)cc1", "HCT-15 colon", "not fulfilled"],
  ["O=C(c1ccc(O)cc1)C1[C@H](c2ccc(Br)cc2)[C@@H](c2ccccc2)NC12C(=O)Nc1ccc(Br)cc12 (some centres undefined)", "HCT-15 colon", "not fulfilled"]
]}

Is reported growth greater than or equal to 40% here: O=C(CNc1nc(-c2ccccc2)cs1)Nc1ccc(Br)cc1
not fulfilled

Determine whether this compound has growth no lower than 40%: Cc1ccc(C(=O)N/C(=C2/OCCN2C)[P+](c2ccccc2)(c2ccccc2)c2ccccc2)cc1
fulfilled

growth >= 40% for O=C(N/N=C/c1ccc(B(O)O)o1)c1[nH]c2ccc(Br)cc2c1-c1ccccc1 ?
not fulfilled

Please indicate if the recorded growth for O=C(c1ccc(O)cc1)C1[C@H](c2ccccc2Br)[C@@H](c2ccccc2)NC12C(=O)Nc1ccc(Br)cc12 (some centres undefined) meets or exceeds 40%.
not fulfilled

Textbook exercise: given the entry Cc1ccc(-c2cc(C(=O)N=Nc3c(O)[nH]c4ccccc34)c3ccccc3n2)cc1 , state whether its growth is greater than or equal to 40%.
not fulfilled

Confirm if growth reported for the compound COc1ccc(CCN2C(=O)/C(=C/c3csc(C#N)n3)SC2=S)cc1 is 40% or above.
not fulfilled

Please indicate if the recorded growth for Cc1cccc2cc(-c3cc(-c4ccccc4)nc(=S)[nH]3)c(Cl)nc12 meets or exceeds 40%.
fulfilled

Please check the record CC(=C(c1ccc(OCCN2CCCCCC2)cc1)c1ccc(OCCN2CCCCCC2)cc1)c1ccc(Cl)cc1 and state if its growth is at or above 40%.
not fulfilled

Hi team, for COc1ccc2nc(Cl)c(-c3cc(-c4ccccc4)nc(N)n3)cc2c1 , is the recorded growth at or above 40%?
not fulfilled

Does [2H]C([2H])([2H])Oc1ccc2ncc(C#Cc3cncc(C(=O)Nc4ccc(CN5CCN(C)CC5)c(C(F)(F)F)c4)c3)n2n1 have a reported growth of at least 40%?
not fulfilled

Identify whether the reported growth of the following compound is 40% or greater: O=C(NO)c1ccc(-c2nc3ccc4[nH]ncc4c3c3c2CCCC3)cc1
not fulfilled

API: above_or_equal(metric=growth, cutoff=40%) for item COc1ccsc1/C=N/NC(=O)c1[nH]c2ccc(Br)cc2c1-c1ccccc1
not fulfilled

Identify whether the reported growth of the following compound is 40% or greater: N#Cc1c(-c2ccc(F)cc2)nc(SCc2ccc([N+](=O)[O-])cc2)nc1N1CCOCC1
fulfilled

----------
- Test system: UACC-62 melanoma
- test-summary: NCI-60 one-dose screen, 48 h (100 = growth as untreated, 0 = no growth, -100 = all killed)
- recorded-conditions: 10 µM
About 83,000 compounds went through this panel and 20% of them were active in at least one assay; those are over-represented in the sample as a whole.
Checkbox rule: growth lower than 40% = y; growth not lower than 40% = n.

{"columns": ["compound", "classification"],
 "data": [
  ["COc1cccc(/C=N/NC(=O)c2ccc3nc(-c4ccc(Cl)cc4)[nH]c3c2)c1O", "y"],
  ["N#Cc1c(NC(=O)c2ccc(C(F)(F)F)cc2)sc2c1CCC(O)=C2", "y"],
  ["COc1ccc2[nH]c(O)c(N=NC(=O)COc3ccc(NC(=O)Nc4ccc(Cl)c(Cl)c4)cc3)c2c1", "y"],
  ["CN(C)c1ccc(/C=C/c2nc3ccccc3c(=O)n2CC(=O)Nc2ccc(Cl)cc2)cc1", "n"],
  ["O=C(CSc1nnc(-c2c[nH]c3ccccc23)n1-c1ccccc1)Nc1ccc(C(=O)/C=C/c2ccccc2Cl)cc1", "n"]
]}

is_below(growth, 40%) for CCOC(=O)C1=C(N)N(c2ccccc2)C2=C(C(=O)CC(C)(C)C2)C1c1ccccc1OC (centres undefined) ?
n

Below 40% on growth? Entry O=C(c1ccc(O)cc1)C1[C@H](c2ccccc2Br)[C@@H](c2ccccc2)NC12C(=O)Nc1ccc(Cl)cc12 (some centres undefined)
y

Does the reported growth of the following compound sit strictly below 40%? Clc1ccc2c(N/N=C/c3c[nH]c4ccc(Br)cc34)ccnc2c1
y
